For each entry below, report its RP-LC retention time value.
- procedure summary: gradient 5% acetonitrile 3 min, to 50% in 2 min, to 85% in 15 min, held 3 min, 100 µL/min
- condition details: column: Zorbax Extend-C18 2.1 x 50 mm; eluents: water / acetonitrile, 0.1% formic acid
Reply with just the number (in s).

GET /values?readout=RP-LC retention time&item= `Clc1ccc(-c2csc(NCc3ccccc3)n2)cc1`
1170

GET /values?readout=RP-LC retention time&item= `COc1ccc(CNC(=O)C2(c3ccc(NC(C)=O)cc3)CCC2)cc1`
728

GET /values?readout=RP-LC retention time&item= CNC(=O)C1CCCN(c2nc3ncn(CC(=O)NC4CCCC4)c(=O)c3s2)C1 (stereo not given)
605

GET /values?readout=RP-LC retention time&item= COc1ccccc1NC(=O)NC1CCN(c2cc(C)cc(C)c2)C1=O (stereo not given)
881

GET /values?readout=RP-LC retention time&item= Cc1ccccc1-c1noc(CSc2nc3cc4c(cc3c(=O)n2CC2CCCO2)OCO4)n1 (stereo not given)
1170

GET /values?readout=RP-LC retention time&item= `Cc1ccsc1C(=O)NC1(c2nc(-c3cccnc3)no2)CCCCC1`
937

GET /values?readout=RP-LC retention time&item= `Cc1csc(-c2ccc(CNC(=O)c3cccnc3)cc2)n1`
672

GET /values?readout=RP-LC retention time&item= COc1ccc(NC(=O)C2CC(=O)N(CCc3c[nH]c4ccc(F)cc34)C2)c(OC)c1 (stereo not given)
793

GET /values?readout=RP-LC retention time&item= COc1cc(C2Oc3ccc(C4Oc5cc(O)cc(O)c5C(=O)C4O)cc3OC2CO)ccc1O (stereo not given)
685

GET /values?readout=RP-LC retention time&item= `CC(C)NC(=O)N(C)CCc1noc(COc2ccc(Cl)cc2)n1`
841

GET /values?readout=RP-LC retention time&item= `O=C(c1csc(-c2ccc(N3CCCC3)nc2)n1)N1CCCC1`
596

GET /values?readout=RP-LC retention time&item= `COc1ccc(-c2c(C)noc2NC(C)=O)cc1S(=O)(=O)Nc1ccc(F)c(F)c1`
748

GET /values?readout=RP-LC retention time&item= `Fc1ccc(Cc2nc3nccc(-c4cccs4)n3n2)cc1`
915

GET /values?readout=RP-LC retention time&item= CC(C)CNC(=O)C1CCCN(c2cnc3nccnc3c2)C1 (stereo not given)
658

GET /values?readout=RP-LC retention time&item= `CSc1cccc(NC(=O)COc2cc(C(F)(F)F)c3c(C)nn(C)c3n2)c1`
756

GET /values?readout=RP-LC retention time&item= `Cc1cc(C(=O)NCCCN2CCN(c3cc(Cl)ccc3C)CC2)n(-c2ccccc2)n1`
726

GET /values?readout=RP-LC retention time&item= `CCn1nccc1C(=O)Nc1ccc(-c2nnc3n2CCCC3)cc1`
1010

GET /values?readout=RP-LC retention time&item= `CCn1c(=O)sc2cc(S(=O)(=O)N3CCC(C(=O)Nc4ccc(F)c(Cl)c4)CC3)ccc21`
1010

GET /values?readout=RP-LC retention time&item= `COc1ccc(-c2nc(NC3CC3)c3ccccc3n2)cc1`
706

GET /values?readout=RP-LC retention time&item= `CCc1ccc(Oc2cc(N3CCC(C(=O)NCCc4cccs4)CC3)ncn2)cc1`
851

* * *

- procedure summary: gradient 5% acetonitrile 3 min, to 50% in 2 min, to 85% in 15 min, held 3 min, 100 µL/min
- condition details: column: Zorbax Extend-C18 2.1 x 50 mm; eluents: water / acetonitrile, 0.1% formic acid
For each entry below, report its RP-LC retention time value.
Reply with just the number (in s).

GET /values?readout=RP-LC retention time&item= `Cc1nc(-c2ccccc2)sc1C(=O)N1CCCC1`
824

GET /values?readout=RP-LC retention time&item= `Cc1nc2cc(-c3noc(CNC(=O)Cc4ccc(Cl)cc4)n3)ccc2o1`
858

GET /values?readout=RP-LC retention time&item= CCN1C(=O)c2cc(C(=O)NCc3ccccc3C)nn2CC1(C)C(=O)NC1CCCC1 (stereo not given)
884

GET /values?readout=RP-LC retention time&item= `O=C(c1cc(-c2cccc(Cl)c2)nc2ccccc12)N1CCN(c2ccccn2)CC1`
766

GET /values?readout=RP-LC retention time&item= `COc1ccc2c(c1)CCc1sc(NC(=O)c3ccc(OC)c(Br)c3)nc1-2`
1210

GET /values?readout=RP-LC retention time&item= `Cn1cc(CCN2CCN(S(=O)(=O)c3ccc(C#N)cc3)CC2)c2cccnc21`
616

GET /values?readout=RP-LC retention time&item= O=C(NC1CCN(c2cc(-c3ccccc3)[nH]n2)C1)c1ccc(F)c(F)c1 (stereo not given)
739

GET /values?readout=RP-LC retention time&item= `O=C(C1=CN(c2ccc3c(c2)OCCO3)c2cc(Cl)ccc2S1(=O)=O)N1CCCCC1`
873

GET /values?readout=RP-LC retention time&item= `CCOC(=O)Cn1cc(S(=O)(=O)N2CCCC2)ccc1=O`
696

GET /values?readout=RP-LC retention time&item= `O=C(Cc1ccc(NC(=O)C2CC2)cc1)NCc1cccs1`
659

The measured values listed here are drawn from the METLIN SMRT retention time set (Domingo-Almenara et al. 2019).
